Molecular target: Sau-MenDATCC 25923 (Staphylococcus aureus)
Assay: Intrinsic fluorescence quenching upon DHNA titration
Format: binding
Conditions: + 100 μM ThDP/300 μM oxoglutarate, 1 µM enzyme
Procedure: Intrinsic fluorescence quenching experiments were performed at 25°C with a Varian Cary Eclipse Fluorescence Spectrophotometer (Agilent Technologies) with slits set at 5 nm bandwidth. The excitation wavelength was 290 nm and emission spectra were recorded in the 300–400 nm range. […] Following DHNA addition, cuvette contents were mixed immediately and fluorescence intensity was measured. […]
METRIC NAME: Kd
Put down the number, then write its unit next to it.

Ask: For the compound O=C(O)c1cc(O)c2ccccc2c1O [DHNA, 1,4-dihydroxy-2-naphthoic acid] , report Kd.
Result: 67 µM

====

Target: WT Sau-MenDIS1 (Staphylococcus aureus)
Sequence (Q2FZL7 whole entry): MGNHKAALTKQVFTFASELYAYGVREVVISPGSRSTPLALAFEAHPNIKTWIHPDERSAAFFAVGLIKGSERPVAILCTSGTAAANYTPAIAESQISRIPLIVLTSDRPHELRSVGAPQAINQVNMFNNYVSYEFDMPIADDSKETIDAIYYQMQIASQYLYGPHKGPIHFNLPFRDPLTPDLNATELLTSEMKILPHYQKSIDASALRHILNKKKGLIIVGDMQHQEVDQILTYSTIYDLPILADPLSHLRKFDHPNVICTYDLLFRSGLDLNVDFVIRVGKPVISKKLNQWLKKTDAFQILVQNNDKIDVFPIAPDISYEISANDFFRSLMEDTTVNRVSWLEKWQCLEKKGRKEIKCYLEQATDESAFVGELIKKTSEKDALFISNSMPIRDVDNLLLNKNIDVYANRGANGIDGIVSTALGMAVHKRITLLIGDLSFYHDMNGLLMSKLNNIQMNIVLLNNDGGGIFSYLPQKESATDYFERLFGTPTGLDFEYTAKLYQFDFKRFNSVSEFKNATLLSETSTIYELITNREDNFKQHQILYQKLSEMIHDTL
METRIC NAME: IC50 (µM)
State just the number; it will be interpreted in µM.

Ask: Under WT Sau-MenDIS1 (Staphylococcus aureus), report IC50 for O=C(O)c1cc(O)c2ccccc2c1O [DHNA, 1,4-dihydroxy-2-naphthoic acid]
Result: 3.7

====

Target: Sau-MenDIS1 (Staphylococcus aureus)
Test: Intrinsic fluorescence quenching upon DHNA titration
Type: binding
Conditions: + 100 μM ThDP/300 μM oxoglutarate, 1 µM enzyme; read-out: Kd for DHNA
METRIC NAME: pKd
Would you please state pKd, meaning minus log10 of the concentration in mol/L, as a bare number?

Ask: Name the recorded pKd of the item O=C(O)c1cc(O)c2ccccc2c1O [DHNA, 1,4-dihydroxy-2-naphthoic acid] in your answer.
Result: 4.24

====

Target: Sau-MenDIS1 (Staphylococcus aureus)
Experiment: Intrinsic fluorescence quenching upon DHNA titration
Type: binding
Conditions: apo-enzyme, 1 µM enzyme, 25°C; read-out: Kd for DHNA
METRIC NAME: pKd
API: returns pKd as number; meaning -log10 of concentration in mol/L.

Ask: Given the compound O=C(O)c1cc(O)c2ccccc2c1O [DHNA, 1,4-dihydroxy-2-naphthoic acid] , write its reported pKd.
Result: 3.96

====

Target: Sau-MenDATCC 25923 (Staphylococcus aureus, UniProt Q5HH40)
Assay: Intrinsic fluorescence quenching upon DHNA titration
Format: binding
Conditions: apo-enzyme, 1 µM enzyme, 25°C
METRIC NAME: Kd (µM)
Expressed in µM, but write only the number.

Ask: Please give measured Kd of the following entry: O=C(O)c1cc(O)c2ccccc2c1O [DHNA, 1,4-dihydroxy-2-naphthoic acid]
Result: 85

Provenance of the data: paper PMC9835592
